B1: Hairpin Ribozyme (parent)
chain: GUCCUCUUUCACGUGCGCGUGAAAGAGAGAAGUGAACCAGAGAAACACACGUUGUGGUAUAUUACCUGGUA

variants of: B1; experiment: self-cleavage, relative activity (ratio to wild type); higher = more cleavage; co-transcriptional
Short version: self-cleavage at least 0.2 is criterion met, less is criterion not met.

- variant.string: "G21U A59G"
  category.label: "criterion not met"
- variant.string: "G25A G29U"
  category.label: "criterion not met"
- variant.string: "A64G"
  category.label: "criterion met"
- variant.string: "G42A U67A"
  category.label: "criterion met"
- variant.string: "G21A C38A"
  category.label: "criterion met"
- variant.string: "A41C A43G"
  category.label: "criterion not met"
- variant.string: "U8C G54U"
  category.label: "criterion met"
- variant.string: "G34C C46G"
  category.label: "criterion not met"

Reported self-cleavage reaches at least 0.2 for U8C A71U ? criterion met

Reported self-cleavage reaches at least 0.2 for U53G A64C ? criterion not met

Reported self-cleavage reaches at least 0.2 for C50U ? criterion met

Reported self-cleavage reaches at least 0.2 for U55C U63A ? criterion not met
